assay system: T1, human MSLN-R3-3 polypeptide (human)
T1 construct: also called human MSLN-R3-3 protein; hMSLN-R3-3
assay name: ELISA, coated antigen; antibody 0.001 nM
measure: OD450
Be sure to follow the number with its unit.

Check out these entries, answers already filled in.
# binder, OD450
data = [
    ("S009-F3.7.3 (antibody, human IgG1, kappa, V domains shown, Human-murine chimeric antibody: murine VH/VL on human IgG1 heavy chain constant region and human kappa constant region) VH: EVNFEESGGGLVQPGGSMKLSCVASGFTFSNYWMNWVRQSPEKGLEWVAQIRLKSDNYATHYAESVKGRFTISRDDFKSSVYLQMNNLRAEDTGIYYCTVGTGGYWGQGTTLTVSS VL: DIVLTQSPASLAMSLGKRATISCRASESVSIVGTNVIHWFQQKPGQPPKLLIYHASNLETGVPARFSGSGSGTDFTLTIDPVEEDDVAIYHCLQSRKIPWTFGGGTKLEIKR", "0.07 OD450"),
    ("S009-F3.16.1 (antibody, human IgG1, kappa, V domains shown, Human-murine chimeric antibody, human IgG1/kappa constant regions) VH: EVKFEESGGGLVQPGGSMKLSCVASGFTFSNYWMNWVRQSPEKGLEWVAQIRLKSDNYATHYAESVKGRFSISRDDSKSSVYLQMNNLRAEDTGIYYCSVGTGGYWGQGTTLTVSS VL: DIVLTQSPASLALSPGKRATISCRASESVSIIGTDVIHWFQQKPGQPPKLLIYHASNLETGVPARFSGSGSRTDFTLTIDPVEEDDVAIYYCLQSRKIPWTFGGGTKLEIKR", "0.08 OD450"),
]

(Q) Can you look up the measured OD450 of S009-F3.38.10 (antibody, human IgG1, kappa, V domains shown, Human-murine chimeric antibody, human IgG1/kappa constant regions) VH: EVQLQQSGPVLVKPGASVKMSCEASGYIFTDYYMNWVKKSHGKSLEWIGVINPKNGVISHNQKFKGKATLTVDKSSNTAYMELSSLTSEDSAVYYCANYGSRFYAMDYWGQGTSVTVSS VL: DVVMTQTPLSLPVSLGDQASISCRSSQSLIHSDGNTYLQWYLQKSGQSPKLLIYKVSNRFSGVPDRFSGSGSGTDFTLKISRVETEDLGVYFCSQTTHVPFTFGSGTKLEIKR for me?
(A) 0.08 OD450
